Each entry below lists one item and its recorded percent of cells in the positive quadrant value.
# measurement-target: T1, human PD-1 expressed on cells (human, UniProt Q15116 25-288)
# T1 construct: whole, on cells; also called hPD-1; 293 cell line stably expressing human PD-1
# T1 sequence (Q15116 25-288): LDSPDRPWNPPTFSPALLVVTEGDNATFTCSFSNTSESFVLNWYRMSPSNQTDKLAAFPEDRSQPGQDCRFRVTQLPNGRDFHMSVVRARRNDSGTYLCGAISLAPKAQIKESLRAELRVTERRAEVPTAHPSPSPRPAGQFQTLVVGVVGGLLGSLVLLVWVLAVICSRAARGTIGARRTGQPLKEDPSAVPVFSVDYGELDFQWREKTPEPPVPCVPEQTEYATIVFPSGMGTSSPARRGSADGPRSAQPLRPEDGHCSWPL
# experiment: flow cytometry on cells overexpressing hPD-1
Give just the number in %; leave the unit off.

{"columns": ["binder", "units", "data-value"],
 "data": [
  ["8D4-T16-02 (antibody, V domains shown, Engineered clone of humanized 8D4; also called T1-02) VH: QVQLVQSGAEVKKPGASVKVSCKASGYTFTTYWIHWVRQAPGQGLEWIGYINPTTGYTEYNQKFKDRATLTADKSTSTAYMELSSLRSEDTAVYYCARGVRYYFDYWGKGTTVTVSS VL: DIVMTQSPDSLAVSLGERATINCKSSQSLLDSRTRKNYLAWYQQKPGQPPKLLIYWASTRESGVPDRFSGSGSGTDFTLTISSLQAEDVAVYYCQQQYDPPITFGQGTKLEIK", "%", 95.5],
  ["humanized antibody 7C5 (antibody, V domains shown, Humanized antibody) VH: EVQLVESGGGLVKPGGSLRLSCAASGFTFSSFGMSWVRQAPGKGLELVATIYSNGDYTYYPDSVKGRFTVSRDNAKNSLYLQMNSLRAEDTAVYYCARYYGNYGGYFDYWGQGTLVTVSS VL: AIQMTQSPSSLSASVGDRVTITCKASQSVSNDVAWYQQKPGKAPKLLIYYASNRYTGVPSRFSGSGSGTDFTLTISSLQPEDFATYYCQQDYSSPPTFGGGTKVEIK", "%", 96.4]
]}

# evaluate next
Bench note: what percent of cells in the positive quadrant did T14-02 (antibody, V domains shown) VH: EVQLVESGGGLVQPGGSLRLSCAASGFVFSNYDMSWVRQAPGKGLEWVAYITIGGGTTYYPDTVKGRFTISRDNAKNSLYLQMNSLRAEDTAVYYCARWVYDPLYAMDYWGQGTTVTVSS VL: DIVLTQTPLSLSVTPGQPASISCRASESVDNYGISFMNWFLQKPGQPPQLLIYAASNQGSGVPDRFSGSGSGTDFTLKISRVEAEDVGVYYCQQSEEVPWTFGQGTKVEIK show?
96
